Kindly state LC99 for each of the entries shown.
# Tested on: B16
# assay-method-text: In vitro cytotoxicity (LC99) was measured against B16 Melanoma cells
# Type: cell-based
# test-settings: mouse
Give bare numbers, in µM.

Field: example entries. Status: answers known.
compound	LC99 (µM)
CC1CC(C)(C)NC(CCOP(=O)(OC[C@H]2O[C@@H](n3cc(F)c(=O)[nH]c3=O)C[C@@H]2O)N2CCCCC2)O1 (some centres not stated)	650
Cc1ccc(S(=O)(=O)OCCN(C)P(=O)(OCCC2NC(C)(C)CC(C)O2)OC[C@H]2O[C@@H](n3cc(F)c(=O)[nH]c3=O)C[C@@H]2O)cc1 (some centres not stated)	141
CC1CC(C)(C)NC(CCOP(=O)(OC[C@H]2O[C@@H](n3cc(F)c(=O)[nH]c3=O)C[C@@H]2O)N(CCBr)CCBr)O1 (some centres not stated)	100
CC1CC(C)(C)NC(CCOP(=O)(OC[C@H]2O[C@@H](n3cc(F)c(=O)[nH]c3=O)C[C@@H]2O)N(C)CCI)O1 (some centres not stated)	95

Each compound below has a reported value. Please supply its LC99.
1. Cc1cn([C@H]2C[C@H](O)[C@@H](COP(=O)(OCCC3NC(C)(C)CC(C)O3)N(CCBr)CCBr)O2)c(=O)[nH]c1=O (some centres not stated)
2. CC1CC(C)(C)NC(CCOP(=O)(OC[C@H]2O[C@@H](n3ccc(=O)[nH]c3=O)C[C@@H]2O)N(CCBr)CCBr)O1 (some centres not stated)
3. CC1CC(C)(C)NC(CCOP(=O)(OC[C@H]2O[C@@H](n3cc(F)c(=O)[nH]c3=O)C[C@@H]2O)N(C)CCCl)O1 (some centres not stated)

120
155
375

###

Kindly state LC99 for each of the entries shown.
# Tested on: B16
# assay-method-text: In vitro cytotoxicity (LC99) was measured against B16 Melanoma cells
# Type: cell-based
# test-settings: mouse
Answers are plain numbers, in µM.

Field: example entries. Status: answers known.
compound	LC99, µM
Cc1cn([C@H]2C[C@H](O)[C@@H](COP(=O)(OCCC3NC(C)(C)CC(C)O3)N(C)CCBr)O2)c(=O)[nH]c1=O (some centres undefined)	165
CC1CC(C)(C)NC(CCOP(=O)(OC[C@H]2O[C@@H](n3cc(F)c(=O)[nH]c3=O)C[C@@H]2O)N(C)CCBr)O1 (some centres undefined)	101

Now look at this one.
Hello, I am looking for reported LC99 with B16 for CC1CC(C)(C)NC(CCOP(=O)(OC[C@H]2O[C@@H](n3ccc(=O)[nH]c3=O)C[C@@H]2O)N(C)CCBr)O1 (some centres undefined) . Could you help? 319
